Source of measurements: paper PMC5603853

Experiment: Pharmacokinetic study after intravenous administration
Assay type: in vivo
Settings: rat, plasma; intravenous 10 mg/Kg, male Wistar rats
property: C0 (µg/mL)
Number only, in µg/mL; omit the unit.

Endpoint output: C0 of CS(=O)(=O)c1ccc(-c2cc(C(=O)O)c3cccc(C(=O)c4ccccc4)c3n2)cc1 [AZGH 102] . Value? 113

====

Assay: Pharmacokinetic study after intravenous administration
Assay type: in vivo
Conditions: rat, plasma; intravenous 10 mg/Kg, female Wistar rats; read-out: β (elimination rate constant) (converted)
property: k el (s⁻¹)
Number only, in s⁻¹; omit the unit.

Endpoint output: k el of CS(=O)(=O)c1ccc(-c2cc(C(=O)O)c3cccc(C(=O)c4ccccc4)c3n2)cc1 . Value? 0.00015
